# tested.system: T1, human CD24 (human, UniProt P25063 27-59, heavily glycosylated, GPI-anchored (as described in the background))
# T1 construct: whole, on cells; Target of all cell-based FACS assays; also called hCD24; Cluster of differentiation 24
# T1 chain (looked up): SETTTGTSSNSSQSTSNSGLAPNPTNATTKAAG
# procedure.text: FACS, A549 cells
measurement.name: Max MFI
// print number alone

>  <binder>
81A1F8 (antibody, V domains shown, mouse monoclonal antibody) VH: EVQLQQSGPELVKPGASVKISCKATGYLFTGYYMNWVKQSPEKSLEWIGEINPNTGDTNNNQKFKAKATMTVDRSSSTAYMQLKRLTSEDSAVYYCVRRDYGTSLDYWGQGTTLTVSS VL: DVQITQSPSYLAASPGETITINCRASKSINKYLAWYQEKPGKTNKLLIHSGSTLQSGIPSRFSGSRSGTDFTLTISNLEPEDFAMYYCQQHNEYPITFGAGTKLELK

>  <Max MFI>
8660

$$$$

// moving on: another record for Max MFI
**Query** Using the record for 71A4F12 (antibody, V domains shown, mouse monoclonal antibody) VH: EVQLQQSGPELVKPGASVKIPCKASGYTFTAYNMDWVKQSHGMSLEWIGDINPNNGDTVYNQNFKGKATLTVDKSSSTAYMELRSLTSEDTAVYYCARRGSYYYGSSHYALDFWGQGTSVSVSS VL: DIQMTQITSSLSASLGNRVTISCRASQDIRNYLNWYQQKPDGTVKLLIYYTSRLLSGVPSRFSGSGSGTDYSLTISNLEQEDIATYFCQQDNSLPRTFGGGTRLEIR , state its measured Max MFI.
**Result** 4410
